Target: T1, human LILRA3 (human, UniProt Q8N6C8 24-439)
T1 construct: whole, on cells; also called hLILRA3
T1 sequence (Q8N6C8 24-439): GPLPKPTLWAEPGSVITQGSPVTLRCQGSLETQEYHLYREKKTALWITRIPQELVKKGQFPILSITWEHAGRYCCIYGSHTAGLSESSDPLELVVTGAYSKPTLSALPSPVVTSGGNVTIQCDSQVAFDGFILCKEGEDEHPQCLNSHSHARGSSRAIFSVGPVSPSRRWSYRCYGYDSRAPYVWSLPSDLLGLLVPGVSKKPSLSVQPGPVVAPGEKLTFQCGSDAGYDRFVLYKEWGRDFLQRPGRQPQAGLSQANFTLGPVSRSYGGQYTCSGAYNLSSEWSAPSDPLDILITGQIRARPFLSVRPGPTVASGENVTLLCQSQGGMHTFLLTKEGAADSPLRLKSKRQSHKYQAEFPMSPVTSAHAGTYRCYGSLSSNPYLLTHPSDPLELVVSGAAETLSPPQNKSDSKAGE
Test: FACS, 293F-hLILRA3 cells
Give MFI for every item shown.
Field: numeric (MFI). Do not append units.

Requested read-out: MFI. Entry: 44-F10-B6-D4 (antibody, V domains shown, mouse monoclonal hybridoma antibody) VH: EVHLVESGGGLVKPGGSLKLSCAASGFTFSSYAMSWVRQTPEKRLEWVATISSGGSYIYYPDSVKGRFTISRDNAKNTLYLQMSSLRSEDTAMYYCARQDWDGGDYYAMDYWGQGTSVTVSS VL: DIVMTQSPSSLAVSAGEKVTMSCKSSQSVLYSSNQKNFLAWYQQKPGQSPKLLIYWASTRESGVPDRFTGSGSGTDFTLTISSVQAEDLAVYYCHQYLSSLTFGAGTKLELK
22.5

Requested read-out: MFI. Entry: 25-E7-A10-H6 (antibody, V domains shown, mouse monoclonal hybridoma antibody) VH: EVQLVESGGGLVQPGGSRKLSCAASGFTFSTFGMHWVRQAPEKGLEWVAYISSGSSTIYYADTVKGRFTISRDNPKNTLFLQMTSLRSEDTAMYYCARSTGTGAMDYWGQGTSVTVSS VL: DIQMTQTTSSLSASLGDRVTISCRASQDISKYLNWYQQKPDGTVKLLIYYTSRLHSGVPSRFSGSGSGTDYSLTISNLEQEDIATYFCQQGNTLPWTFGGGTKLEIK
20.1

Requested read-out: MFI. Entry: 8-B3-F6-H8 (antibody, V domains shown, mouse monoclonal hybridoma antibody) VH: EVKVIESGGGLVQPGGSLKLSCAASGFDFSRYWMSWVRQAPGKGLEWIGEINPDSSAINYTPSLKDKFIISRDNAKNTLYLQMSKVRSEDTALYYCATSMTMDYWGQGTSVTVSS VL: DIVMTQSPSSMYASLGERVTITCKASQDIKSYLSWYQQKPWKSPKTLIYYATSLADGVPSRFSGSGSGQDYSLTISSLESDDTATYYCLQHGESPYTFGGGTKLEK
20
